Recorded values, source a melting point compilation (Tetko et al.; mined from patent text by program, amines drawn as free bases though some values may be those of a salt).

Here, each record is paired with measured melting point data.

O=C1C=C(OCc2ccccc2)CN1 | 147 to 148 °C
CC(C)(ON1C(C)(C)CC(OC(=O)CCCCCCCCC(=O)OC2CC(C)(C)N(OC(C)(C)c3ccccc3)C(C)(C)C2)CC1(C)C)c1ccccc1 | 94 to 96 °C
Cc1[nH]c2ccccc2c1/C=C/C(=O)c1ccncc1 | 268 to 272 °C

Task: For `CC(=O)Nc1cc2cc([N+](=O)[O-])ccc2oc1=O` , what is its reported melting point?
Result: 277 to 279 °C

Task: What about `CCOC(=O)c1cccc(C=C(C(=O)O)c2ccccc2)c1` ?
Result: 139 to 140 °C

Task: What would you report for `CCOc1cc(C=O)cc2c1OC1(C=C2Br)CCN(C(=O)OC(C)(C)C)CC1` ?
Result: 148 to 150 °C

Task: Another compound to check: `COc1cccc(NS(=O)(=O)c2sccc2C2OCCO2)c1`
Result: 112 to 114 °C

Task: Next compound: `CS(=O)(=O)c1ccc(-c2cc(CO[N+](=O)[O-])nn2CC2CCCCC2)cc1`
Result: 98 to 99 °C

Task: Request: `CCNc1nc(-c2ccc(NC(=O)NCc3cccnc3)cc2)ccc1C(=O)NCCN(C(C)C)C(C)C`
Result: 160 to 162 °C
